# target desc: p110β (PI 3-Kβ, p110β/p85α) (Homo sapiens, UniProt P42338)
# Construct: full-length p110β with N-His6-rTEV tag (tag removed by rTEV) co-expressed with full-length p85α; baculovirus/Sf9; IMAC, MonoQ; heterodimer; with Phosphatidylinositol 3-kinase regulatory subunit alpha
# Sequence (P42338 whole entry): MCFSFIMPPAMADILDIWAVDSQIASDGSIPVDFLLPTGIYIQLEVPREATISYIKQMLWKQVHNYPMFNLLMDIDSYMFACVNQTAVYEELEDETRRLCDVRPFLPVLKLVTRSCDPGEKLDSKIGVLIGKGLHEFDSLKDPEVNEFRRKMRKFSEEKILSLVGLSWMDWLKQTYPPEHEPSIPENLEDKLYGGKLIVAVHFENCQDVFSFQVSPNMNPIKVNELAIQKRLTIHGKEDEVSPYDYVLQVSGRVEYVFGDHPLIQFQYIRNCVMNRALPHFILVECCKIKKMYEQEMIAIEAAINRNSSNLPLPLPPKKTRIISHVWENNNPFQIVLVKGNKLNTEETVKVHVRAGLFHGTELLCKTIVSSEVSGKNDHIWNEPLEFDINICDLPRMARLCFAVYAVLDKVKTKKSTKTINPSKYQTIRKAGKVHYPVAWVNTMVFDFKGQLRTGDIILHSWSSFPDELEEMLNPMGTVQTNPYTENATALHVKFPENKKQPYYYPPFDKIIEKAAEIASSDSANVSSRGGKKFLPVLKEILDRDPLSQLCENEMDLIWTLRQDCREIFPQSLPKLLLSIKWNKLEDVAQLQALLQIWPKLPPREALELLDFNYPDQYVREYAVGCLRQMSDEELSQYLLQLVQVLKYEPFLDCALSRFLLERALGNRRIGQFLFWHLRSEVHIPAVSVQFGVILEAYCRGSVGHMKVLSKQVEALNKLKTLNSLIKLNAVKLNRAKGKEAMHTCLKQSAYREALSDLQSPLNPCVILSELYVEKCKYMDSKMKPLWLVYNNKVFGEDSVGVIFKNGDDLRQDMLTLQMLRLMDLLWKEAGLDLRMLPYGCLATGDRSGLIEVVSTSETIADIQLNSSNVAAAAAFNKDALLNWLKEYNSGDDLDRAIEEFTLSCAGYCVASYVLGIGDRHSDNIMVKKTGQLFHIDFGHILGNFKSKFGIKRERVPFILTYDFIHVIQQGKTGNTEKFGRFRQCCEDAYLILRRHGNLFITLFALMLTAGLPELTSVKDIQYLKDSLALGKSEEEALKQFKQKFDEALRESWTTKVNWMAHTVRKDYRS
# Sequence (P27986 2-724 partner): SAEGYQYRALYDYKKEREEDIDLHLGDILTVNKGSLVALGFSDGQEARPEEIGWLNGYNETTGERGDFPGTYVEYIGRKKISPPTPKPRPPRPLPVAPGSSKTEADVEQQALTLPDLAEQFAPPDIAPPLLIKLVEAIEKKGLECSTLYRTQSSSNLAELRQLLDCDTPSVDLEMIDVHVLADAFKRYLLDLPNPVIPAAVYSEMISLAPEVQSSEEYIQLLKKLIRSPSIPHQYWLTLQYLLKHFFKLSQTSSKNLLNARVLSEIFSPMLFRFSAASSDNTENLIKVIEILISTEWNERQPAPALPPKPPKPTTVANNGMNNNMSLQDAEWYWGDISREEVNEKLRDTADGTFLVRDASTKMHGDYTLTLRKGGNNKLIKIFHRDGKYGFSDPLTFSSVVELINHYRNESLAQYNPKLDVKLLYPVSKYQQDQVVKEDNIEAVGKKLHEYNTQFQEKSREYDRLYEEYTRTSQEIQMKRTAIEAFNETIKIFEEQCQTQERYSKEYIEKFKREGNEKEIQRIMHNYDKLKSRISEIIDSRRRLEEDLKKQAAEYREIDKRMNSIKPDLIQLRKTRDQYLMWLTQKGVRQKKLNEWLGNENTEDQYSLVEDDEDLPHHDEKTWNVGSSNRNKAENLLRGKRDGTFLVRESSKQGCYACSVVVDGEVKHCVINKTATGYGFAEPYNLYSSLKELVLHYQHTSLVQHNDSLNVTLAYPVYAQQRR
# assay notes: HTRF lipid kinase assay
# applied conditions: […] ATP, PI([…])P2 substrate, His-tag removed
endpoint label: IC50
Please state the number and follow it with the unit.

Please look at this compound and report its IC50: Cc1cc([C@H](C)Nc2ccccc2)c2oc(N3CCOCC3)cc(=O)c2c1 [PIK108]
14 nM

====

# target desc: p110γ (PI 3-Kγ) (Homo sapiens, UniProt P48736)
# Construct: catalytic subunit only, N-His6-rTEV tag (tag removed by rTEV); baculovirus/Sf9
# Sequence (P48736 whole entry): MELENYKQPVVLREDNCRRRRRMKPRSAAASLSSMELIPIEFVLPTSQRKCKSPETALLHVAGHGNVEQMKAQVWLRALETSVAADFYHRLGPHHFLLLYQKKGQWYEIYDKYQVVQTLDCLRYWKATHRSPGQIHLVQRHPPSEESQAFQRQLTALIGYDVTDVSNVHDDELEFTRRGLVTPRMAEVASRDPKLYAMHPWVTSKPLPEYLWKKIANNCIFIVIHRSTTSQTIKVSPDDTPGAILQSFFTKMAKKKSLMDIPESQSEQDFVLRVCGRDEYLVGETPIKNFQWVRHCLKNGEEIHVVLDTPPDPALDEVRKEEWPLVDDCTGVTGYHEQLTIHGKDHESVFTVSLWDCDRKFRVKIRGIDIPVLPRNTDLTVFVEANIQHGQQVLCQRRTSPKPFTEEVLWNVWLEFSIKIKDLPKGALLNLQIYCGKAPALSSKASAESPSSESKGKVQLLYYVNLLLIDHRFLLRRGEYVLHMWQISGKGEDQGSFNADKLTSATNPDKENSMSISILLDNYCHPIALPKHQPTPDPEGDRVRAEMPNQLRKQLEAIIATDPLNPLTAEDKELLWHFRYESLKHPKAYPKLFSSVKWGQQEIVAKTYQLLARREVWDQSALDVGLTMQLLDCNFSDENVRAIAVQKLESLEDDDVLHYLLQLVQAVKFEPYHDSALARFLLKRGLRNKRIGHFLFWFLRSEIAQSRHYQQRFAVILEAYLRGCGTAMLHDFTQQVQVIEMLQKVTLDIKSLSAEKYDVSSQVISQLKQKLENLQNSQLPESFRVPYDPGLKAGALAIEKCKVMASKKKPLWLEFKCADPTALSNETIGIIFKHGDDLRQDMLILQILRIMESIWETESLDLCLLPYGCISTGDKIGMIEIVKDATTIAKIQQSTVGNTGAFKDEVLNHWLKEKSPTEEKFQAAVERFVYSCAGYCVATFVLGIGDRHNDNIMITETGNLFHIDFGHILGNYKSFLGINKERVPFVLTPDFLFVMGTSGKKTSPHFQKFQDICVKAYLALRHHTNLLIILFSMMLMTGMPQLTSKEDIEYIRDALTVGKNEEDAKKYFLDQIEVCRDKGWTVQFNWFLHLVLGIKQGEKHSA
# assay notes: HTRF lipid kinase assay
endpoint label: pIC50
Numbers only, as −log10 of the molar value.

Give pIC50 for Cc1ccc([N+](=O)[O-])cc1S(=O)(=O)N(C)/N=C/c1cnc2ccc(Br)cn12
7.59

Data provenance: paper PMC3817851
